B1: Myocardin, residues 363 to 406; numbered along this chain, Q8IZQ8 (parent)
chain: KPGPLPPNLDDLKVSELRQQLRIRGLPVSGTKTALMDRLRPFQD

Variants of: B1
Assay: abundance fitness (aPCA) (normalised: wild type 0, dead -1); higher = more abundant; growth selection in yeast, the domain comes from the species named
Settings: Homo sapiens
Classification field: True = abundance fitness at or over -0.9; False = abundance fitness under -0.9.

Incoming: State whether the measured abundance fitness reaches -0.9, counting equality as reaching it, for R22Q
Outgoing: False

Incoming: State whether the measured abundance fitness reaches -0.9, counting equality as reaching it, for K1R
Outgoing: False

Incoming: State whether the measured abundance fitness reaches -0.9, counting equality as reaching it, for E16K
Outgoing: True

Incoming: State whether the measured abundance fitness reaches -0.9, counting equality as reaching it, for G3V
Outgoing: True

Incoming: State whether the measured abundance fitness reaches -0.9, counting equality as reaching it, for G25N
Outgoing: True

Incoming: State whether the measured abundance fitness reaches -0.9, counting equality as reaching it, for L12W
Outgoing: True

Incoming: State whether the measured abundance fitness reaches -0.9, counting equality as reaching it, for R18W
Outgoing: True

Incoming: State whether the measured abundance fitness reaches -0.9, counting equality as reaching it, for L26W
Outgoing: False

Incoming: State whether the measured abundance fitness reaches -0.9, counting equality as reaching it, for L9Q
Outgoing: True

Incoming: State whether the measured abundance fitness reaches -0.9, counting equality as reaching it, for P27W
Outgoing: False

Incoming: State whether the measured abundance fitness reaches -0.9, counting equality as reaching it, for G25W
Outgoing: False

Incoming: State whether the measured abundance fitness reaches -0.9, counting equality as reaching it, for D11S
Outgoing: True

Incoming: State whether the measured abundance fitness reaches -0.9, counting equality as reaching it, for D11L
Outgoing: True

Incoming: State whether the measured abundance fitness reaches -0.9, counting equality as reaching it, for T31S
Outgoing: True

Incoming: State whether the measured abundance fitness reaches -0.9, counting equality as reaching it, for K32I
Outgoing: True

Incoming: State whether the measured abundance fitness reaches -0.9, counting equality as reaching it, for G25H
Outgoing: True

Incoming: State whether the measured abundance fitness reaches -0.9, counting equality as reaching it, for L17C
Outgoing: False

Incoming: State whether the measured abundance fitness reaches -0.9, counting equality as reaching it, for G30C
Outgoing: True

Incoming: State whether the measured abundance fitness reaches -0.9, counting equality as reaching it, for P4L
Outgoing: True

Incoming: State whether the measured abundance fitness reaches -0.9, counting equality as reaching it, for S15R
Outgoing: True

Incoming: State whether the measured abundance fitness reaches -0.9, counting equality as reaching it, for V28M
Outgoing: True
